- TESTED SYSTEM: Neuropeptides B/W receptor type 1 (Homo sapiens) (UniProt P48145)
- Sequence (P48145 whole entry, looked up): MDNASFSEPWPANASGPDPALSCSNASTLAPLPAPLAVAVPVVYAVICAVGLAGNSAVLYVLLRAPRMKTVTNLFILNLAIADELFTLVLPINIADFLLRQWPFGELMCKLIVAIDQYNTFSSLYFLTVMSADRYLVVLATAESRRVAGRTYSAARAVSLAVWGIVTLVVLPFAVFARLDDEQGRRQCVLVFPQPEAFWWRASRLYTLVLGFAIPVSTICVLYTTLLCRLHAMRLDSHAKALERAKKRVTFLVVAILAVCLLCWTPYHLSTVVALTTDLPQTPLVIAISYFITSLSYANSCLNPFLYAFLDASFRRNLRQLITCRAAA
- PROTOCOL TEXT: GPR7 receptor antagonists, primary screen, cell-based, fluorescence, single concentration (AID 1861);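 note: cells stimulated with the agonist NPW; 0% = agonist with vehicle and 100% = vehicle without agonist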
- CONDITION NOTES: GPR7-expressing cells, fluorescence antagonist assay; at 4.4 µM; stronger effect = higher value
Among all 290,000 compounds or so, about 3,100 (1.1%) were called active. The sample holds actives, similar compounds and a random draw of the others, so the mix is not that of the screen.
Can you tell me inhibition for the items I'm about to list?
The answer is to be given in %; state only the numeric part.

-- ask Identify inhibition associated with the molecule CCN1/C(=C/c2ccc3ccc(C)cc3[n+]2CC)Sc2ccccc21
-- reply 38.4

-- ask Identify inhibition associated with the molecule COc1cccc(CNS(=O)(=O)c2csc(C(N)=O)c2)c1
-- reply -3.2

-- ask Identify inhibition associated with the molecule COc1ccc(C2CC(=O)Nc3cc(C)c(C)cc32)c(OC)c1OC (stereo unspecified)
-- reply -2.76

-- ask Identify inhibition associated with the molecule COc1ccccc1C1C2=C(COC2=O)Nc2cc3c(cc21)OCO3 (stereo unspecified)
-- reply 3.72

-- ask Identify inhibition associated with the molecule O=C1CCCN2N=C(SCC(=O)Nc3ccc(Br)cc3)SC2=N1
-- reply 4.5

-- ask Identify inhibition associated with the molecule O=C(CCc1ccccc1)Nc1ccc(NC(=O)C2CC2)nc1
-- reply 34

-- ask Identify inhibition associated with the molecule CCCCN(CC)C(=O)c1ccc2c(c1)OCO2
-- reply 11.2

-- ask Identify inhibition associated with the molecule CC(=O)Nc1ccc(S(=O)(=O)NCC2CCC(C(=O)NCCc3ccccc3)CC2)cc1 (stereo unspecified)
-- reply -13.4

-- ask Identify inhibition associated with the molecule CC1CN(C(=O)CCC(=O)NC2CCN(Cc3ccccc3)CC2)c2ccccc2O1 (stereo unspecified)
-- reply -0.83

-- ask Identify inhibition associated with the molecule CCc1ccc(N2CC(C(=O)N3CCCCCC3)CC2=O)cc1 (stereo unspecified)
-- reply -4.17

-- ask Identify inhibition associated with the molecule COc1ccccc1N1CCN(c2ncnc3sc(C)c(-c4ccccc4)c23)CC1
-- reply 27

-- ask Identify inhibition associated with the molecule CCc1nn(CC(=O)N2CCN(CC)CC2)c(=O)c2cccn12
-- reply -11.1

-- ask Identify inhibition associated with the molecule CCNC(=S)N(CCN(CC)CC)Cc1cc2cc3c(cc2[nH]c1=O)OCCO3
-- reply -10.2

-- ask Identify inhibition associated with the molecule COc1ccccc1N1CCN(c2ccc([N+](=O)[O-])nc2)CC1
-- reply -2.36

-- ask Identify inhibition associated with the molecule O=C1CN(C(=O)c2ccccc2F)C(c2ccc(F)cc2)c2cc(F)ccc2N1 (stereo unspecified)
-- reply -1.3

-- ask Identify inhibition associated with the molecule CCN1CCN(CCNC(=O)c2ccc(/C=C3/Sc4ccccc4N(Cc4cccc(C)c4)C3=O)cc2)CC1
-- reply 3.05

-- ask Identify inhibition associated with the molecule C=CCC1(CC=C)CCCN1C(=O)c1cc(COc2ccc(-n3cncn3)cc2)on1
-- reply 29.1

-- ask Identify inhibition associated with the molecule COCCN(Cc1cc2cc3c(cc2nc1Cl)OCO3)C(=O)c1cccc(C)c1
-- reply 21.6

-- ask Identify inhibition associated with the molecule CCN1/C(=C\c2ccc3ccccc3[n+]2CC)Sc2cc(C)ccc21
-- reply 34.1

-- ask Identify inhibition associated with the molecule CC1CN(C(=O)CCC(=O)NCc2cccnc2)c2ccccc2O1 (stereo unspecified)
-- reply 6.78

-- ask Identify inhibition associated with the molecule O=C(O)c1ccc(S(=O)(=O)N2CCOCC2)o1
-- reply 1.56
